# protocol details: Single-photon quantum yield for fluorescence
# Assay type: physicochemical
# assay context: one-photon; standard TPPS4 in water
This section presents compounds with their documented quantum yield for fluorescence φF (± σ) values.

[
  {
    "compound": "O=S(=O)([O-])c1ccc(-c2c3nc(c(-c4ccc(F)cc4)c4ccc(s4)c(-c4ccc(F)cc4)c4nc(c(-c5ccc(S(=O)(=O)[O-])cc5)c5ccc2[se]5)C=C4)C=C3)cc1.[Na+].[Na+] [Compound 10]",
    "quantum yield for fluorescence φF (± σ)": "1.4 (± 0.1) × 10^−4"
  },
  {
    "compound": "O=S(=O)(O)c1ccc(-c2c3nc(c(-c4ccc(S(=O)(=O)O)cc4)c4ccc([se]4)c(-c4ccc(S(=O)(=O)O)cc4)c4nc(c(-c5ccc(S(=O)(=O)O)cc5)c5ccc2[se]5)C=C4)C=C3)cc1 [Compound 7]",
    "quantum yield for fluorescence φF (± σ)": "8.9 (± 0.4) × 10^−4"
  },
  {
    "compound": "O=S(=O)([O-])c1ccc(-c2c3nc(c(-c4ccc(F)cc4)c4ccc([se]4)c(-c4ccc(F)cc4)c4nc(c(-c5ccc(S(=O)(=O)[O-])cc5)c5ccc2[se]5)C=C4)C=C3)cc1.[Na+].[Na+] [DH-105]",
    "quantum yield for fluorescence φF (± σ)": "<10^−4"
  }
]

Now look at this one.
Query: Consider the compound shown here: CN(C)c1ccc(-c2c3nc(c(-c4ccc(S(=O)(=O)[O-])cc4)c4ccc(s4)c(-c4ccc(S(=O)(=O)[O-])cc4)c4nc(c(-c5ccc(N(C)C)cc5)c5ccc2s5)C=C4)C=C3)cc1.[Na+].[Na+] [Compound 14] What is its recorded quantum yield for fluorescence φF (± σ)?
Response: <10^−4

###

# protocol details: Quantum yield for the generation of singlet oxygen
# Format: physicochemical
# assay context: aqueous solution
Marks after values point to notes of the source that are not given here.
measure name: quantum yield for the generation of singlet oxygen φ(^1O2)

Worked cases, answers included:
[
  {
    "compound": "CN(C)c1ccc(-c2c3nc(c(-c4ccc(S(=O)(=O)[O-])cc4)c4ccc(s4)c(-c4ccc(S(=O)(=O)[O-])cc4)c4nc(c(-c5ccc(N(C)C)cc5)c5ccc2s5)C=C4)C=C3)cc1.[Na+].[Na+]",
    "endpoint result": "0.60 ± 0.02"
  },
  {
    "compound": "O=S(=O)([O-])c1ccc(-c2c3nc(c(-c4ccc(F)cc4)c4ccc(s4)c(-c4ccc(F)cc4)c4nc(c(-c5ccc(S(=O)(=O)[O-])cc5)c5ccc2[se]5)C=C4)C=C3)cc1.[Na+].[Na+]",
    "endpoint result": "0.65 ± 0.01"
  },
  {
    "compound": "O=S(=O)(O)c1ccc(-c2c3nc(c(-c4ccc(S(=O)(=O)O)cc4)c4ccc([nH]4)c(-c4ccc(S(=O)(=O)O)cc4)c4nc(c(-c5ccc(S(=O)(=O)O)cc5)c5ccc2[nH]5)C=C4)C=C3)cc1 [TPPS4, reference compound]",
    "endpoint result": "0.71^b"
  },
  {
    "compound": "O=S(=O)([O-])c1ccc(-c2c3nc(c(-c4ccc(F)cc4)c4ccc([se]4)c(-c4ccc(F)cc4)c4nc(c(-c5ccc(S(=O)(=O)[O-])cc5)c5ccc2[se]5)C=C4)C=C3)cc1.[Na+].[Na+]",
    "endpoint result": "0.55 ± 0.02"
  },
  {
    "compound": "O=C([O-])COc1ccc(-c2c3nc(c(-c4ccc(F)cc4)c4ccc(s4)c(-c4ccc(F)cc4)c4nc(c(-c5ccc(OCC(=O)[O-])cc5)c5ccc2s5)C=C4)C=C3)cc1.[Na+].[Na+]",
    "endpoint result": "0.71 ± 0.02"
  }
]

Query: Consider the compound shown here: O=S(=O)([O-])c1ccc(-c2c3nc(c(-c4ccc(F)cc4)c4ccc([se]4)c(-c4ccc(F)cc4)c4nc(c(-c5ccc(S(=O)(=O)[O-])cc5)c5ccc2s5)C=C4)C=C3)cc1.[Na+].[Na+] What is its recorded quantum yield for the generation of singlet oxygen φ(^1O2)?
Response: 0.64 ± 0.01

###

# protocol details: Rate of photobleaching in phosphate-buffered saline
# Format: physicochemical
# assay context: PBS; 570-750 nm light at 500 mW cm^−2; constant initial absorbance
measure name: rate of photobleaching (kbleach)

Worked cases, answers included:
[
  {
    "compound smiles": "O=S(=O)([O-])c1ccc(-c2c3nc(c(-c4ccc(C(F)(F)F)cc4)c4ccc(s4)c(-c4ccc(C(F)(F)F)cc4)c4nc(c(-c5ccc(S(=O)(=O)[O-])cc5)c5ccc2s5)C=C4)C=C3)cc1.[Na+].[Na+]",
    "endpoint result": "0.13 ± 0.02 × 10^4 s^−1"
  },
  {
    "compound smiles": "O=C([O-])COc1ccc(-c2c3nc(c(-c4ccc(F)cc4)c4ccc(s4)c(-c4ccc(F)cc4)c4nc(c(-c5ccc(OCC(=O)[O-])cc5)c5ccc2s5)C=C4)C=C3)cc1.[Na+].[Na+]",
    "endpoint result": "0.16 ± 0.02 × 10^4 s^−1"
  },
  {
    "compound smiles": "O=C([O-])COc1ccc(-c2c3nc(c(-c4ccccc4)c4ccc(s4)c(-c4ccccc4)c4nc(c(-c5ccc(OCC(=O)[O-])cc5)c5ccc2s5)C=C4)C=C3)cc1.[Na+].[Na+]",
    "endpoint result": "0.18 ± 0.02 × 10^4 s^−1"
  }
]

Query: Consider the compound shown here: O=S(=O)([O-])c1ccc(-c2c3nc(c(-c4ccc(F)cc4)c4ccc([se]4)c(-c4ccc(F)cc4)c4nc(c(-c5ccc(S(=O)(=O)[O-])cc5)c5ccc2[se]5)C=C4)C=C3)cc1.[Na+].[Na+] What is its recorded rate of photobleaching (kbleach)?
Response: 1.44 ± 0.03 × 10^4 s^−1

Query: Consider the compound shown here: CN(C)c1ccc(-c2c3nc(c(-c4ccc(S(=O)(=O)[O-])cc4)c4ccc(s4)c(-c4ccc(S(=O)(=O)[O-])cc4)c4nc(c(-c5ccc(N(C)C)cc5)c5ccc2s5)C=C4)C=C3)cc1.[Na+].[Na+] What is its recorded rate of photobleaching (kbleach)?
Response: 0.77 ± 0.04 × 10^4 s^−1
